- Tested on: MES-SA
- method notes: relative viability vs DMSO control (72 h) (fraction); higher = more viable cells
- details: 0.3704 µM
readout name: relative viability
Reply with just the number.

>>> numeric_value("CNC(=O)c1c(C)oc2cc(Oc3ncnc4cc(OC)c(OC)cc34)ccc12 [Fruquintinib]")
0.929
>>> numeric_value("CS(=O)(=O)CCNCc1ccc(-c2ccc3ncnc(Nc4ccc(OCc5cccc(F)c5)c(Cl)c4)c3c2)o1 [Lapatinib]")
0.933
>>> numeric_value("O=C1CCc2c(Oc3ccc4c(c3)[C@@H]3[C@H](O4)[C@H]3c3nc4cc(C(F)(F)F)ccc4[nH]3)ccnc2N1 [Lifirafenib]")
0.992
>>> numeric_value("COc1cc2ncnc(Nc3ccc(F)c(Cl)c3)c2cc1OCCCN1CCOCC1 [Gefitinib]")
0.969
>>> numeric_value("C[C@@H]1CN(C(=O)c2ccc(NC(=O)c3cc(O[C@H](C)c4c(Cl)ccc(F)c4Cl)c(N)nn3)cc2)C[C@H](C)N1 [Ensartinib]")
0.933

Query: Find the measured relative viability of O=C(/C=C\n1cnc(-c2cc(C(F)(F)F)cc(C(F)(F)F)c2)n1)NNc1cnccn1 [Selinexor] with MES-SA as test system.
Reply: 0.342

Query: # return relative viability of C=CC(=O)N1CCC(CNc2ncnc(N)c2-c2ccc(Oc3ccccc3)cc2)CC1 [Evobrutinib] (system: MES-SA)
Reply: 0.933

Query: Retrieve relative viability on MES-SA; query O=C(c1ccc(F)c(F)c1Nc1ccc(I)cc1F)N1CC(O)([C@@H]2CCCCN2)C1 [Cobimetinib]
Reply: 0.752

---

- Test system: SW1353
- method notes: relative viability vs DMSO control (72 h) (fraction); higher = more viable cells
- details: 3.333 µM
Catalogue of relative viability values
I'd appreciate a reply containing only the number, no unit.

>>> numeric_value("Cc1[nH]c(/C=C2\\C(=O)Nc3ccccc32)c(C)c1CCC(=O)O [Orantinib]")
0.963
>>> numeric_value("CN(C)C(=O)c1cc2cnc(Nc3ccc(N4CCNCC4)cn3)nc2n1C1CCCC1")
0.802
>>> numeric_value("CCOc1cc2ncc(C#N)c(Nc3ccc(OCc4ccccn4)c(Cl)c3)c2cc1NC(=O)/C=C/CN(C)C")
0.426

Turning to the following compound.
Query: Check the records and state relative viability for C#Cc1cccc(Nc2ncnc3cc4c(cc23)OCCOCCOCCO4)c1
Reply: 0.914

---

- System: SW684
- method notes: relative viability vs DMSO control (72 h) (fraction); higher = more viable cells
- details: 1.111 µM
Response field label takes Satisfied when relative viability is strictly below 0.8 and Not satisfied in all other cases.

>>> label("O=C(c1ccc(F)c(F)c1Nc1ccc(I)cc1F)N1CC(O)([C@@H]2CCCCN2)C1")
"Satisfied"

Query: State whether 0.8 exceeds relative viability recorded for CCS(=O)(=O)N1CC(CC#N)(n2cc(-c3ncnc4[nH]ccc34)cn2)C1 .
Reply: Not satisfied

Query: Take the compound O=C1CCc2c(Oc3ccc4c(c3)[C@@H]3[C@H](O4)[C@H]3c3nc4cc(C(F)(F)F)ccc4[nH]3)ccnc2N1 and say whether its relative viability is less than 0.8.
Reply: Not satisfied

Query: Lab log: compare recorded relative viability with 0.8; is it strictly lower for C=CC(=O)N1CCC(CNc2ncnc(N)c2-c2ccc(Oc3ccccc3)cc2)CC1 ?
Reply: Not satisfied

Query: Given the entry CO[C@H]1C[C@@H]2CC[C@@H](C)[C@@](O)(O2)C(=O)C(=O)N2CCCC[C@H]2C(=O)O[C@H]([C@H](C)C[C@@H]2CC[C@@H](OC(=O)C(C)(CO)CO)[C@H](OC)C2)CC(=O)[C@H](C)/C=C(\C)[C@@H](O)[C@@H](OC)C(=O)[C@H](C)C[C@H](C)/C=C/C=C/C=C/1C , would its reported relative viability be below 0.8?
Reply: Satisfied

Query: Strictly below 0.8 in relative viability? CN(C)CCCOc1ccc(-c2ccc3ncc4c(c3c2)n(C2CCOCC2)c(=O)n4C)cn1
Reply: Not satisfied

Query: Is 0.8 strictly greater than the compound's reported relative viability? compound: Cc1cc2c(F)c(Oc3ncnn4cc(OC[C@@H](C)OC(=O)[C@H](C)N)c(C)c34)ccc2[nH]1 [Brivanib_alaninate]
Reply: Not satisfied

---

- Test system: SK-ES-1
- method notes: relative viability vs DMSO control (72 h) (fraction); higher = more viable cells
- details: 0.3704 µM
We begin with a simple list: items and their reported relative viability.
Please reply with the number alone, leaving off any unit.

In the examples that follow, each entry is paired with its recorded relative viability.
>>> numeric_value("O=C(/C=C\\n1cnc(-c2cc(C(F)(F)F)cc(C(F)(F)F)c2)n1)NNc1cnccn1 [Selinexor]")
0.014
>>> numeric_value("Cc1[nH]c(/C=C2\\C(=O)Nc3ccccc32)c(C)c1CCC(=O)O [Orantinib]")
1.06
>>> numeric_value("CCOc1cc2ncc(C#N)c(Nc3ccc(OCc4ccccn4)c(Cl)c3)c2cc1NC(=O)/C=C/CN(C)C")
0.397
>>> numeric_value("C[C@@H]1CN(C(=O)c2ccc(NC(=O)c3cc(O[C@H](C)c4c(Cl)ccc(F)c4Cl)c(N)nn3)cc2)C[C@H](C)N1")
0.857
>>> numeric_value("COc1cc2ncnc(Nc3ccc(F)c(Cl)c3)c2cc1OCCCN1CCOCC1")
0.958

Query: Indicate its recorded relative viability; the molecule in question is Cn1cnc2c(F)c(Nc3ccc(Br)cc3Cl)c(C(=O)NOCCO)cc21
Reply: 0.925

Query: Give reported relative viability value for CN(C)C/C=C/C(=O)Nc1cc2c(Nc3ccc(F)c(Cl)c3)ncnc2cc1O[C@H]1CCOC1
Reply: 0.676

Query: Report relative viability, nothing else, for this molecule: COc1cc(N2CCC(N3CCN(C)CC3)CC2)ccc1Nc1ncc(Cl)c(Nc2ccccc2P(C)(C)=O)n1
Reply: 0.496

---

- System: SW982
- method notes: relative viability vs DMSO control (72 h) (fraction); higher = more viable cells
- details: 0.00152 µM
Listed compounds paired with reported relative viability
Please give only the number in your answer, with no unit.

Query: For C[C@@H]1CN(C(=O)c2ccc(NC(=O)c3cc(O[C@H](C)c4c(Cl)ccc(F)c4Cl)c(N)nn3)cc2)C[C@H](C)N1 [Ensartinib] , write its relative viability.
Reply: 0.986

Query: Give reported relative viability value for CO[C@H]1C[C@@H]2CC[C@@H](C)[C@@](O)(O2)C(=O)C(=O)N2CCCC[C@H]2C(=O)O[C@H]([C@H](C)C[C@@H]2CC[C@@H](OC(=O)C(C)(CO)CO)[C@H](OC)C2)CC(=O)[C@H](C)/C=C(\C)[C@@H](O)[C@@H](OC)C(=O)[C@H](C)C[C@H](C)/C=C/C=C/C=C/1C [Temsirolimus]
Reply: 0.724

Query: Please give measured relative viability of the following entry: O=C1CCc2c(Oc3ccc4c(c3)[C@@H]3[C@H](O4)[C@H]3c3nc4cc(C(F)(F)F)ccc4[nH]3)ccnc2N1 [Lifirafenib]
Reply: 1.05

Query: Give recorded relative viability. COC(=O)c1ccc2c(c1)NC(=O)/C2=C(\Nc1ccc(N(C)C(=O)CN2CCN(C)CC2)cc1)c1ccccc1 [Nintedanib]
Reply: 1

Query: Please look at this compound and report its relative viability: CN(C)CCCOc1ccc(-c2ccc3ncc4c(c3c2)n(C2CCOCC2)c(=O)n4C)cn1 [AZD-0156]
Reply: 1.06

Query: Specify measured relative viability for COc1cc(Nc2ncc3c(n2)-c2ccc(Cl)cc2C(c2c(F)cccc2OC)=NC3)ccc1C(=O)O [Alisertib] .
Reply: 1.03

Query: Check the records and state relative viability for COc1cc(N2CCC(N3CCN(C)CC3)CC2)ccc1Nc1ncc(Cl)c(Nc2ccccc2P(C)(C)=O)n1 [Brigatinib]
Reply: 1.03

---

- Tested on: SK-ES-1
- method notes: relative viability vs DMSO control (72 h) (fraction); higher = more viable cells
- details: 0.00051 µM
readout name: relative viability
Simply state the number, no unit and no words.

Worked examples, 4 compounds total:
>>> numeric_value("CC(=O)c1c(C)c2cnc(Nc3ccc(N4CCNCC4)cn3)nc2n(C2CCCC2)c1=O")
1.07
>>> numeric_value("O=C1CCc2c(Oc3ccc4c(c3)[C@@H]3[C@H](O4)[C@H]3c3nc4cc(C(F)(F)F)ccc4[nH]3)ccnc2N1")
1.04
>>> numeric_value("Cn1cnc2c(F)c(Nc3ccc(Br)cc3Cl)c(C(=O)NOCCO)cc21")
0.961
>>> numeric_value("COc1cc(Nc2ncc3c(n2)-c2ccc(Cl)cc2C(c2c(F)cccc2OC)=NC3)ccc1C(=O)O")
1.05

Query: Using known records, supply relative viability for CO[C@H]1C[C@@H]2CC[C@@H](C)[C@@](O)(O2)C(=O)C(=O)N2CCCC[C@H]2C(=O)O[C@H]([C@H](C)C[C@@H]2CC[C@@H](OC(=O)C(C)(CO)CO)[C@H](OC)C2)CC(=O)[C@H](C)/C=C(\C)[C@@H](O)[C@@H](OC)C(=O)[C@H](C)C[C@H](C)/C=C/C=C/C=C/1C
Reply: 0.904
